Ratio IC50 values for the molecules below.
- Organism: Homo sapiens
- assay.method.text: Selectivity for human cloned MC5R over human cloned MC3R
Lab note: record the figure alone, no unit after it.

molecule: CCCC[C@H](NC(C)=O)C(=O)N[C@H]1CC(=O)NCCCC[C@@H](C(N)=O)NC(=O)[C@H](Cc2c[nH]c3ccccc23)NC(=O)[C@@H]2CCCCN2C(=O)[C@H](Cc2ccc(-c3ccccc3)cc2)NC(=O)[C@@H]2CCCN2C1=O
Ratio IC50: 1800

molecule: CCCC[C@H](NC(C)=O)C(=O)N[C@H]1CC(=O)NCCCC[C@@H](C(N)=O)NC(=O)[C@H](Cc2c[nH]c3ccccc23)NC(=O)[C@@H]2CCCN2C(=O)[C@H](Cc2ccc(-c3ccccc3)cc2)NC(=O)[C@@H]2CC3CCCCC3N2C1=O (some centres undefined)
Ratio IC50: 440

molecule: CCCC[C@H](NC(C)=O)C(=O)N[C@H]1CC(=O)NCCCC[C@@H](C(N)=O)NC(=O)[C@H](Cc2c[nH]c3ccccc23)NC(=O)[C@@H]2CCCCN2C(=O)[C@H](Cc2ccc(-c3ccccc3)cc2)NC(=O)[C@@H]2Cc3ccccc3CN2C1=O
Ratio IC50: 1440

Then this molecule:
Query: What does the record list as Ratio IC50 for CCCC[C@H](NC(C)=O)C(=O)N[C@H]1CC(=O)NCCCC[C@@H](C(N)=O)NC(=O)[C@H](Cc2c[nH]c3ccccc23)NC(=O)[C@@H]2CCCCN2C(=O)[C@H](Cc2ccc(-c3ccccc3)cc2)NC(=O)[C@H](Cc2c[nH]cn2)NC1=O ?
Result: 1940

----------
Listed next: entries and their corresponding IC50.
- assayed.system: Melanocyte-stimulating hormone receptor (Homo sapiens, UniProt Q01726)
- Sequence (Q01726 whole entry): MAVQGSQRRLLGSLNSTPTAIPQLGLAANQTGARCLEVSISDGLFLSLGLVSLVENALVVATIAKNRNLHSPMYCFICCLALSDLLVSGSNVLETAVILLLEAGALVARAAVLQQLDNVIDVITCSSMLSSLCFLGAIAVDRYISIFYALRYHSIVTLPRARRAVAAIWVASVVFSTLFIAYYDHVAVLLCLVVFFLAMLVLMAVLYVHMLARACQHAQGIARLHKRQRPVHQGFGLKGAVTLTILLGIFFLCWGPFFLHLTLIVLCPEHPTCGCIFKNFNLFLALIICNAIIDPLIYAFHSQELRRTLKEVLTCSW
- assay.method.text: Displacement of [125I]NDPalphaMSH from human cloned melanocortin receptor 1b expressed in CHO cells
- Format: cell-based
Starred links: 1 amine or outer side, 2 acyl side, 3 side chain; linkers in the order of their positions; H or OH if unused. Positions of bridges follow the written chain, without caps; N, C: chain ends. Non-standard residues stand in square brackets, D forms with d. Residues, ends and D or L forms follow the SMILES beside them. ξ: configuration not given here. X2 = O=C([C@@H](Cc1ccc(Cc2ccccc2)cc1)N[*:1])[*:2]; Oic(3aξ,7aξ) = O=C(O)[C@@H]1CC2CCCCC2N1; Pip = O=C(O)[C@@H]1CCCCN1; Nle = CCCC[C@H](N)C(=O)O

Worked examples, 7 molecules total:
molecule: CCCC[C@H](NC(C)=O)C(=O)N[C@H]1CC(=O)NCCCC[C@@H](C(N)=O)NC(=O)[C@H](Cc2c[nH]c3ccccc23)NC(=O)[C@@H]2CCCN2C(=O)[C@@H](CCCC)NC(=O)[C@H](Cc2cnc[nH]2)NC1=O
observed.value: > 10 µM
--
molecule: CCCC[C@H](NC(C)=O)C(=O)N[C@H]1CC(=O)NCCCC[C@@H](C(N)=O)NC(=O)[C@H](Cc2c[nH]c3ccccc23)NC(=O)[C@@H]2CCCCN2C(=O)[C@@H](Cc2ccc(-c3ccccc3)cc2)NC(=O)[C@H](C2CCCCC2)NC1=O
observed.value: > 10 µM
--
molecule: CCCC[C@H](NC(C)=O)C(=O)N[C@H]1CC(=O)NCCCC[C@@H](C(N)=O)NC(=O)[C@H](Cc2c[nH]c3ccccc23)NC(=O)[C@@H]2CCCCN2C(=O)[C@@H](Cc2ccc(-c3ccccc3)cc2)NC(=O)[C@H](Cc2c[nH]cn2)NC1=O
observed.value: 0.0059 µM (antagonist)
--
molecule: CCCC[C@H](NC(C)=O)C(=O)N[C@H]1CC(=O)NCCCC[C@@H](C(N)=O)NC(=O)[C@H](Cc2c[nH]c3ccccc23)NC(=O)[C@@H]2CCCN2C(=O)[C@@H](Cc2ccc(OCC)cc2)NC(=O)[C@H](Cc2cnc[nH]2)NC1=O
observed.value: 0.43 µM (antagonist)
--
molecule: CCCC[C@H](NC(C)=O)C(=O)N[C@H]1CC(=O)NCCCC[C@@H](C(N)=O)NC(=O)[C@H](Cc2c[nH]c3ccccc23)NC(=O)[C@@H]2CCCN2C(=O)[C@@H](CCC(=O)O)NC(=O)[C@H](Cc2c[nH]cn2)NC1=O
observed.value: > 10 µM
--
molecule: CCCC[C@H](NC(C)=O)C(=O)N[C@H]1CC(=O)NCCCC[C@@H](C(N)=O)NC(=O)[C@H](Cc2c[nH]c3ccccc23)NC(=O)[C@@H]2CCCN2C(=O)[C@@H](Cc2ccc(O)cc2)NC(=O)[C@H](Cc2cnc[nH]2)NC1=O
observed.value: > 10 µM
--
molecule: CCCC[C@H](NC(C)=O)C(=O)N[C@H]1CC(=O)NCCCC[C@@H](C(N)=O)NC(=O)[C@H](Cc2c[nH]c3ccccc23)NC(=O)[C@@H]2CCCCN2C(=O)[C@@H](Cc2ccc(Cc3ccccc3)cc2)NC(=O)[C@@H]2CC3CCCCC3N2C1=O (stereo partly drawn) (Ac-[Nle]D[Oic(3aξ,7aξ)][X2][Pip]WK-NH2; lactam 2-7)
observed.value: > 1 µM

We now examine a further molecule.
Query: For the molecule CCCC[C@H](NC(C)=O)C(=O)N[C@H]1CC(=O)NCCCC[C@@H](C(N)=O)NC(=O)[C@H](Cc2c[nH]c3ccccc23)NC(=O)[C@@H]2CCCCN2C(=O)[C@@H](Cc2ccc(-c3ccccc3)cc2)NC(=O)[C@H](C(C)C)NC1=O , what IC50 is on record?
Result: 4.9 µM (antagonist)
